Test system: BT-549
protocol.notes: NCI tumour cell line growth inhibition, 48 h
The source made the active and inactive calls. Rule as the data show it: active = GI50 up to about 1.1 µM and inactive = higher.
Labels: active, inactive

compound: C=C(CCC/C(C)=C/C=C/[C@@H](C)CCCc1ccoc1)C[C@@H]1OC(=O)[C@H](C)[C@@H]1O
category: inactive
//
compound: Cn1c2ccccc2c(=O)c2cccc(C(=O)NC(CS)C(=O)O)c21 (stereo unspecified)
category: inactive
//
compound: CCOP(=O)(OCC)[C@H](O)c1ccsc1
category: inactive
//
compound: COC(=O)C1(Cc2ccc3c(c2)CCC3)Cc2ccc3c(c2C1O)CCC3 (stereo unspecified)
category: inactive
//
compound: CCC1c2[nH]c3ccccc3c2C[C@H]2C(=O)N3CCC[C@H]3C(=O)N12 (stereo partly specified)
category: inactive
//
compound: CCCCCCCc1cscc1-c1cscc1Br
category: inactive
//
compound: COC1Cc2c(C)c(OC(C)=O)c3cccnc3c2O1 (stereo unspecified)
category: inactive
//
compound: COc1cc(C2C3=C(COC3=O)Oc3cc4c(cc32)OCO4)cc(OC)c1OC(C)=O (stereo unspecified)
category: active
//
compound: O=Cc1coc2ccccc2c1=O
category: inactive
//
compound: Nc1nc(O)c2[nH]cnc2[n+]1[O-]
category: inactive
//
compound: COc1cc2c(C)cc(O)cc2c2cc(O)c(C)cc12
category: inactive

---

Tested on: OVCAR-5
protocol.notes: NCI tumour cell line growth inhibition, 48 h
The source made the active and inactive calls. No stated cut-off is given here; in the data, active = GI50 up to about 1.1 µM and inactive = higher.
quantity.measured: GI50

molecule: C=C1C(=O)O[C@H]2C/C(C)=C/CC[C@]3(C)CCC[C@](C)(CC[C@@H]12)O3
quantity.measured: GI50
reported.measurement: 13.7 µM (inactive)
//
molecule: O=c1c2cccnc2[s+]([O-])n1Cc1ccccc1 (centres undefined)
quantity.measured: GI50
reported.measurement: > 100 µM (inactive)
//
molecule: CCCOP(=S)(N1CC1)N1CC1
quantity.measured: GI50
reported.measurement: > 100 µM (inactive)
//
molecule: O=C1C(Cl)C2(CC(/C=C/c3cccs3)=NN2c2cccc(S(=O)(=O)O)c2)N1c1nc2ccccc2s1 (centres undefined)
quantity.measured: GI50
reported.measurement: > 100 µM (inactive)
//
molecule: CCOC(=O)Cn1nnc2ccc(Nc3nc4ccccc4nc3-c3ccccc3)cc21
quantity.measured: GI50
reported.measurement: > 100 µM (inactive)
//
molecule: O=C1CCC(N2C(=O)c3ccccc3C2=O)C(=O)N1 (centres undefined) [THALIDOMIDE]
quantity.measured: GI50
reported.measurement: > 100 µM (inactive)
//
molecule: COc1nc2c(c(=O)[nH]1)N=C(c1ccccc1)CC(c1ccccc1)N2 (centres undefined)
quantity.measured: GI50
reported.measurement: > 100 µM (inactive)
//
molecule: COc1cc([C@@H]2c3cc4c(cc3[C@@H](c3c(O)cc(O)c5c3O[C@H](c3ccc(O)c(O)c3)[C@@H](O)C5)[C@H]3COC(=O)[C@H]23)OCO4)cc(OC)c1OC
quantity.measured: GI50
reported.measurement: 27.2 µM (inactive)
//
molecule: Cc1ccc(-c2[nH]c(=O)n(C3OC(CO)C(O)C(O)C3O)c(=O)c2C#N)cc1 (centres undefined)
quantity.measured: GI50
reported.measurement: > 100 µM (inactive)

---

Test system: NCI/ADR-RES
protocol.notes: NCI tumour cell line growth inhibition, 48 h
Activity calls are given as the source filed them. No stated cut-off is given here; in the data, active = GI50 up to about 1.1 µM and inactive = higher.
Below, each entry is listed alongside its reported GI50.

molecule: O=C(O)C(NCc1ccccc1)C(NCc1ccccc1)C(=O)O (centres undefined)
GI50: > 100 µM (inactive)

molecule: C=C1CC/C=C(\C)C(=O)C[C@@H]2[C@@H]1CC2(C)C [BUDDLEDIN C]
GI50: 4.53 µM (inactive)

molecule: O=C1/C(=C/C=C/c2ccccc2)CCC1CNc1ccccc1 (centres undefined)
GI50: 96.8 µM (inactive)

molecule: O=C1C2=Cc3ccccc3OC2(O)Oc2cc3ccccc3cc21 (centres undefined)
GI50: > 100 µM (inactive)

---

System: A498
protocol.notes: NCI tumour cell line growth inhibition, 48 h
Activity calls are given as the source filed them. Rule as the data show it: active = GI50 up to about 1.1 µM and inactive = higher.

compound: OCc1cc2c(cn1)[nH]c1ccc(NCc3ccccc3)cc12
target.of.assay: A498
GI50: 17.8 µM (inactive)
--
compound: CC1(Br)Cc2ccccc2C1=O (centres undefined)
target.of.assay: A498
GI50: 21.9 µM (inactive)
--
compound: CC(C)=CCC[C@@H](C)C1=C(O)C(=O)C(C)=C(Nc2ccccc2)C1=O
target.of.assay: A498
GI50: 20 µM (inactive)
--
compound: CC(O)(P(=O)(O)O)P(=O)(O)OCC(O)CN1CCOCC1 (centres undefined)
target.of.assay: A498
GI50: > 100 µM (inactive)
--
compound: COc1cc2nc(Cl)nc(NS(=O)(=O)c3cc4ccccc4s3)c2cc1OC
target.of.assay: A498
GI50: 16.4 µM (inactive)
--
compound: COc1cc(S(=O)(=O)Nc2nc(-c3ccc(N4C(=O)/C(=C/c5ccccc5[N+](=O)[O-])N=C4c4ccccc4)cc3)cs2)ccc1Cl
target.of.assay: A498
GI50: > 100 µM (inactive)
--
compound: NCC(Cl)C(O)c1c[nH]c(N)n1 (centres undefined)
target.of.assay: A498
GI50: 0.147 µM (active)
--
compound: COC(=O)C1CC2CCC1(O[Si](C(C)C)(C(C)C)C(C)C)C(O)C2 (centres undefined)
target.of.assay: A498
GI50: 96.6 µM (inactive)
--
compound: CCCCOC(=O)CNC(=O)OC/C=C/C#CC#C/C=C/COC(=O)NCC(=O)OCCCC
target.of.assay: A498
GI50: > 10 µM (inactive)

---

Tested on: HOP-62
protocol.notes: NCI tumour cell line growth inhibition, 48 h
Active and inactive are the calls of the source. Rule as the data show it: active = GI50 up to about 1.1 µM and inactive = higher.
Outcome codes: active, inactive

compound: O=[N+]([O-])c1ccc(/C=C\c2ccc3c(c2)OCO3)c([N+](=O)[O-])c1
category: inactive
--
compound: CCC1(C(=O)OC)CCc2c(OC)ccc(OC)c2C1=O (stereo not drawn)
category: inactive
--
compound: CC(/C=N\NC(=S)N1CCCCC1)=N/NC(=S)N1CCCCC1
category: active
--
compound: C=C(C)C1Cc2c(cc(O)c3c(=O)c4ccccc4n(C)c23)O1 (stereo not drawn)
category: inactive
--
compound: COc1cccc(/C(CC(O)(C(F)(F)F)C(F)(F)F)=N\N(C)C)c1
category: inactive
--
compound: C=CCOC(=O)[C@@H]1C[C@@H](OC(C)(C)C)CN1C(=O)[C@@H]1[C@H]2OC(C)(C)O[C@H]2CN1C(=O)OCC1c2ccccc2-c2ccccc21
category: inactive
--
compound: COc1cc(C=O)c(-c2cc3c(cc2C=O)OCO3)c(OC)c1OC
category: inactive
--
compound: O=c1cc(-c2ccccc2F)[nH]c2cc3c(cc12)OCO3
category: active
--
compound: CC1(Br)S(=O)(=O)OCCOS1(=O)=O
category: inactive
--
compound: Cc1c(/C=C2\CC/C(=C\c3[nH]c(C(=O)OC(C)(C)C)c(C)c3C)C2=O)[nH]c(C(=O)OC(C)(C)C)c1C
category: inactive
--
compound: CC(C)(Oc1ccc(Cl)cc1)C(=O)N(C(=O)N1CCC(c2ccccc2)CC1)c1ccccc1
category: inactive
--
compound: Cc1c(N2C(=O)C(Cl)C2/C=C/c2ccccc2)c(=O)n(-c2ccccc2)n1C (stereo not drawn)
category: inactive
--
compound: CCOC(=O)C(=C(SC)SC)c1nn2c(=O)cc(C)nc2s1
category: inactive
--
compound: C[C@]12CC[C@H](O)C[C@H]1CC[C@@H]1[C@@H]2CC[C@]2(C)[C@@H](C3=CC(=O)OC3)[C@@H](O)C[C@]12O
category: active
--
compound: O=C1c2c(c3c4ccccc4n(CC4CO4)c3c3[nH]c4ccccc4c23)C(=O)N1Cc1ccccc1 (stereo not drawn)
category: inactive
--
compound: C[C@H]1C(OCCOC2O[C@@H]3O[C@@]4(C)CC[C@H]5[C@H](C)CCC([C@H]2C)[C@@]35O4)O[C@@H]2O[C@@]3(C)CC[C@H]4[C@H](C)CCC1[C@@]24O3 (stereo partly drawn)
category: inactive
--
compound: N#Cc1nsnc1-c1nc(-c2nsnc2C#N)nc(-c2nsnc2C#N)n1
category: inactive
--
compound: c1ccc2c(CNCCCCCCCCCCCCNCc3cccc4ccccc34)cccc2c1
category: inactive

---

Test system: OVCAR-3
protocol.notes: NCI tumour cell line growth inhibition, 48 h
Calls of active or inactive are those of the source. Rule as the data show it: active = GI50 up to about 1.1 µM and inactive = higher.
Outcomes: yes for active, no for inactive

compound: COC(=O)C1=C(O)CCCC(CCC(C)=O)=C1
target.of.assay: OVCAR-3
category: no

compound: Cc1c(C(=O)C/C(=N/NC(=O)c2ccccc2O)C(=O)Nc2ccccc2C(C)C)[n+]([O-])c2ccccc2[n+]1[O-]
target.of.assay: OVCAR-3
category: no

compound: COc1ccc(NC(=O)C(=O)NNC(=O)c2sc(NNC(C)=O)nc2C)c([N+](=O)[O-])c1
target.of.assay: OVCAR-3
category: no

compound: CC(C)C1=C(O)C(=O)C2=C(C1=O)C(OC=O)C(O)C1C(C)(C)CCCC21C (stereo not drawn)
target.of.assay: OVCAR-3
category: no

compound: CCNC(=O)COc1ccc(Cl)c(C)c1
target.of.assay: OVCAR-3
category: no

compound: O=C(O)CCCc1ccc2c(c1)CC1(C2)Cc2ccc(CCCC(=O)O)cc2C1
target.of.assay: OVCAR-3
category: no

compound: CN(C)/C=C/C(=O)c1cccc(C(=O)/C=C/N(C)C)n1
target.of.assay: OVCAR-3
category: no

compound: Cc1cc2nc(-c3c(F)cccc3F)n(Cc3c(F)cccc3F)c2cc1C
target.of.assay: OVCAR-3
category: no

compound: O=C1C(CN2CCCCC2)CCCC1CN1CCCCC1 (stereo not drawn)
target.of.assay: OVCAR-3
category: no

compound: O=C(C(Cl)Cl)N(O)c1ccccc1OCc1ccccc1
target.of.assay: OVCAR-3
category: no

compound: N#Cc1cc([N+](=O)[O-])ccc1NC(=O)/C(=N\NC(=O)c1ccncc1)C(c1cnc2ccc([N+](=O)[O-])cc2n1)[N+](=O)[O-] (stereo not drawn)
target.of.assay: OVCAR-3
category: no

compound: N=c1n(C(=O)N2CCCC2)c2cc(Cl)ccc2n1C1=NCCN1
target.of.assay: OVCAR-3
category: no

compound: C=C[C@]1(O)CCC[C@]2(C)C(=O)CCC12C (stereo partly drawn)
target.of.assay: OVCAR-3
category: no

compound: CC(CCCOC(c1ccccc1)(c1ccccc1)c1ccccc1)OC(=O)Nc1ccccc1 (stereo not drawn)
target.of.assay: OVCAR-3
category: no

compound: C#CCC(O)c1ccc(OC)c(OCc2ccccc2)c1 (stereo not drawn)
target.of.assay: OVCAR-3
category: no

compound: COc1ccc(/C=C/c2nnc(S)[nH]2)cc1OC
target.of.assay: OVCAR-3
category: no

compound: C/C(CN1C(=O)c2ccccc2C1=O)=N\NS(=O)(=O)c1cccc([N+](=O)[O-])c1
target.of.assay: OVCAR-3
category: no

compound: O=c1oc2ccccc2c(Nc2ccc3c(c2)Sc2ccccc2O3)c1[N+](=O)[O-]
target.of.assay: OVCAR-3
category: no

compound: O=C(NC(C(F)(F)F)(C(F)(F)F)P(=O)(c1ccccc1)c1ccccc1)C(C(F)(F)F)C(F)(F)F
target.of.assay: OVCAR-3
category: no

compound: Cc1c(OC(C)C(=O)O)ccc2c(-c3ccccc3)cc(=O)oc12 (stereo not drawn)
target.of.assay: OVCAR-3
category: no

compound: CCOC(=O)C(C)c1nc2c(Cl)c3ncccc3cc2[nH]c1=O (stereo not drawn)
target.of.assay: OVCAR-3
category: no

compound: COc1ccc2c(c1)OC(c1ccccc1O)CC2=O (stereo not drawn)
target.of.assay: OVCAR-3
category: no

compound: COc1cc2nc(Cl)nc(NS(=O)(=O)c3cc4ccccc4s3)c2cc1OC
target.of.assay: OVCAR-3
category: no

compound: COc1ccc(/C(C#N)=C(/N)SCc2ccccc2Cl)cc1
target.of.assay: OVCAR-3
category: no

compound: O=S(=O)(O)CCS [MESNA]
target.of.assay: OVCAR-3
category: no

compound: O=C1O[C@H](c2ccccc2)[C@@H]2CC3(CCN12)OCCO3
target.of.assay: OVCAR-3
category: no

compound: O=c1oc2ccc(-n3c(=O)c4ccccc4c4ccccc4c3=O)cc2c2ccccc12
target.of.assay: OVCAR-3
category: no

compound: CC(=O)OCC1OC(Oc2cc(C)c(O)cc2C/C=C(\C)CC/C=C(\C)C[C@@H](C=C(C)C)OC(C)=O)C(O)C(OC(C)=O)C1OC(C)=O (stereo partly drawn)
target.of.assay: OVCAR-3
category: no

compound: O=C(c1ccsc1)c1cc2c(s1)C(=O)c1ccsc1C2=O
target.of.assay: OVCAR-3
category: yes

compound: CCOc1ccc(C2Oc3c(cccc3OC)C=C2[N+](=O)[O-])cc1OCC (stereo not drawn)
target.of.assay: OVCAR-3
category: no

compound: CCc1c(C)c(C#N)c(=S)n(C2OC(COC(C)=O)C(OC(C)=O)C(OC(C)=O)C2OC(C)=O)c1C (stereo not drawn)
target.of.assay: OVCAR-3
category: no

compound: O=C(NNCc1ccccc1O)c1ccccc1O
target.of.assay: OVCAR-3
category: yes

compound: CC1=CC(=O)CC2(C)CC[C@@H]3C[C@]12OC3(C)C (stereo partly drawn)
target.of.assay: OVCAR-3
category: no
